# target-desc: mTOR (Homo sapiens, UniProt P42345)
# Construct: endogenous in cells; host or cells: Jurkat, clone E6-1 (ATCC TIB-152) cell lysate
# test-description: mTOR kinobeads assay (competitive binding in Jurkat cell lysate, immunodetection)
# stated-conditions: kinobeads assay, Table 4; read-out: Inhibition values (IC50) mTor
readout-kind: IC50

Worked examples follow.
- molecule: "C[C@H]1COCCN1c1nc(-c2ccc(NC(=O)NC3CC3)cc2)nc2c1CN(C)C2 [Example 38]"
  result: "< 100 nM"
- molecule: "CC(=O)N1CCc2c(nc(-c3ccc(NC(=O)NC4CC4)cc3)nc2N2CCOC[C@@H]2C)C1 [Example 62]"
  result: "< 100 nM"
- molecule: "CC(=O)N1Cc2nc(-c3ccc(NC(=O)NC4CC4)cc3)nc(N3CCOC[C@@H]3C)c2C1 [Example 20]"
  result: "< 100 nM"

Would you kindly look at the next entry?
Enquiry: Recorded IC50 of CCNC(=O)Nc1ccc(-c2nc3c(c(N4CCOC[C@@H]4C)n2)CN(C=O)C3)cc1 [Example 8] , please.
Return: < 100 nM

###

# target-desc: PI3 Kgamma (PI3 Kg) (Homo sapiens)
# Construct: endogenous in cells; host or cells: cell lysate
# Sequence (P48736 whole entry): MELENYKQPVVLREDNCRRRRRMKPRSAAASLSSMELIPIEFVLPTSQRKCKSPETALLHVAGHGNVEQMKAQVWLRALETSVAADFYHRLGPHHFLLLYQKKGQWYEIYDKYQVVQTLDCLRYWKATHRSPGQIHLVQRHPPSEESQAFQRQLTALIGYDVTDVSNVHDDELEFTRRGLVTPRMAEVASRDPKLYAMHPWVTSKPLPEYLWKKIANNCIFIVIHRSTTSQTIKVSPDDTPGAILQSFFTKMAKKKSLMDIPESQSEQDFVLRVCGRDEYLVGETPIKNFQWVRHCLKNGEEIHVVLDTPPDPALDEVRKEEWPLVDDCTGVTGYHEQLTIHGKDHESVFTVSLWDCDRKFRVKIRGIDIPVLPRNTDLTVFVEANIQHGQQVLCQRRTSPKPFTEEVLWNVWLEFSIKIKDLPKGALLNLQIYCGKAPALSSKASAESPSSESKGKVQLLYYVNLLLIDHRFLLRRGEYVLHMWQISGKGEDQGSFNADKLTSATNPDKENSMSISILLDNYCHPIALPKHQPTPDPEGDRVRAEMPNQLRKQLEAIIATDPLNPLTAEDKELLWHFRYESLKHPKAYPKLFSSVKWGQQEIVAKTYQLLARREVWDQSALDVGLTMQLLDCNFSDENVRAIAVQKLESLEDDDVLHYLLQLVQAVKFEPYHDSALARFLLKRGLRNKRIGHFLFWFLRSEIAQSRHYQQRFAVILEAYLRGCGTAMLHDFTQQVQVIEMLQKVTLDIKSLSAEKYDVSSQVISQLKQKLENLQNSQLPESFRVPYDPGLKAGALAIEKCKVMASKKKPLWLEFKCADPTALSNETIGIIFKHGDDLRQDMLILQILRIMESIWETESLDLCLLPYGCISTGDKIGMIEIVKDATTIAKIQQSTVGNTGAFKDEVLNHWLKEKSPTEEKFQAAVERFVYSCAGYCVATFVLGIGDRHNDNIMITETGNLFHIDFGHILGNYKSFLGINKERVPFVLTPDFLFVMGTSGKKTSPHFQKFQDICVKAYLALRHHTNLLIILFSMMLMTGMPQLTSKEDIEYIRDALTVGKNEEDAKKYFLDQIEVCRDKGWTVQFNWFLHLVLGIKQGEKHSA
# test-description: kinobeads assay, PI3Kgamma
# Assay type: binding
# stated-conditions: kinobeads assay, Table 6; read-out: Inhibition values (IC50) PI3Kg
readout-kind: IC50

Before answering, review these 4 worked examples.
- smiles-text: "CCNC(=O)Nc1ccc(-c2nc3c(c(N4CCOC[C@@H]4C)n2)CN(CC2CC2)C3)cc1"
  result: "> 10 µM"
- smiles-text: "CCNC(=O)Nc1ccc(-c2nc3c(c(N4CCOC[C@@H]4C)n2)CCN(CC)C3)cc1"
  result: "1 to 10 µM"
- smiles-text: "C[C@H]1COCCN1c1nc(-c2ccc(NC(N)=O)cc2)nc2c1CNC2"
  result: "0.1 to 1 µM"
- smiles-text: "CCNC(=O)Nc1ccc(-c2nc3c(c(N4CCOC[C@@H]4C)n2)CCN(C)C3)cc1"
  result: "> 10 µM"

Enquiry: Can you look up the measured IC50 of CCNC(=O)Nc1ncc(-c2nc3c(c(N4CCOC[C@@H]4C)n2)CCN(C)C3)s1 for me?
Return: > 10 µM

Enquiry: Record request: IC50 value, item CCOC(=O)N1Cc2nc(-c3ccc(NC(=O)NCCF)cc3)nc(N3CCOC[C@@H]3C)c2C1
Return: > 10 µM

Enquiry: Requested field: IC50. Item: CCNC(=O)Nc1ccc(-c2nc3c(c(N4CCOCC4)n2)CN(C(=O)NCC)C3)cc1
Return: > 10 µM

Enquiry: Consider the compound shown here: C[C@H]1COCCN1c1nc(-c2ccc(NC(=O)NC3CC3)cc2)nc2c1CN(CC(C)(C)C)C2 What is its recorded IC50?
Return: > 10 µM

###

# target-desc: PI3K delta (PI3 Kd) (Homo sapiens, UniProt O00329)
# Construct: endogenous in cells; host or cells: Jurkat, clone E6-1 (ATCC TIB-152) cell lysate
# Sequence (O00329 whole entry, one chain of several): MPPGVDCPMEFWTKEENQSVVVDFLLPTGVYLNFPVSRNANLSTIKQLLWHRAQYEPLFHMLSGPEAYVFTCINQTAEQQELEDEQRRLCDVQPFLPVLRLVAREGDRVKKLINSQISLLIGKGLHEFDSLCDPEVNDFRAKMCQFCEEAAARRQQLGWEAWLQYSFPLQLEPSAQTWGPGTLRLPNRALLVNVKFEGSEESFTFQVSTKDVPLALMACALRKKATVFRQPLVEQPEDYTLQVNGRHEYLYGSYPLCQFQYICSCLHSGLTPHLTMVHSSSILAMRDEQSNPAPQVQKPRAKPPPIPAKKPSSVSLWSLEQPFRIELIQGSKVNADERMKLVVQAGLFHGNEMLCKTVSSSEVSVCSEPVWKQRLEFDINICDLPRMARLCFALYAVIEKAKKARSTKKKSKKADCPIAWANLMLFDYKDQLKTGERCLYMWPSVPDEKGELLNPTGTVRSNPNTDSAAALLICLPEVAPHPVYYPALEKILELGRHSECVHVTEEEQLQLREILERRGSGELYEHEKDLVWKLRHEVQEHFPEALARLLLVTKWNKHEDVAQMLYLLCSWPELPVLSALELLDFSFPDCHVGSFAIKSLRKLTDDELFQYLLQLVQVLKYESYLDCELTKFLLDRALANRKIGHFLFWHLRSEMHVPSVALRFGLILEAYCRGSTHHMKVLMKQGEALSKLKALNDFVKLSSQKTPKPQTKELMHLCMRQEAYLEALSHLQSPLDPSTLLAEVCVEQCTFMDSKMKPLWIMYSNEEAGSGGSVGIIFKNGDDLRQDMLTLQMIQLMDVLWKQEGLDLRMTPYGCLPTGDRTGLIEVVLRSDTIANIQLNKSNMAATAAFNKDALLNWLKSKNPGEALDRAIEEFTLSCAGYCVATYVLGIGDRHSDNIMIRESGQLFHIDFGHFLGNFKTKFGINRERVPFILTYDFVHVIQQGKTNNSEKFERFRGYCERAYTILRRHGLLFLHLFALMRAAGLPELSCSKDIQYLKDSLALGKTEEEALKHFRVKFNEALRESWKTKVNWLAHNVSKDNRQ
# test-description: kinobeads assay, PI3K delta
# Format: binding
# stated-conditions: kinobeads assay, Table 4; read-out: Inhibition values (IC50) PI3Kd
readout-kind: IC50

- smiles-text: "CC(=O)N1Cc2nc(-c3ccc(NC(=O)NC4CC4)cc3)nc(N3CCOC[C@@H]3C)c2C1"
  readout-kind: "IC50"
  result: "> 10 µM"

Enquiry: # IC50 lookup, item CC(C)N1CCc2c(nc(-c3ccc(NC(=O)NC4CC4)cc3)nc2N2CCOC[C@@H]2C)C1
Return: > 10 µM

Enquiry: IC50 for CC(=O)N1CCc2c(nc(-c3ccc(NC(=O)NC4CC4)cc3)nc2N2CCOC[C@@H]2C)C1 ?
Return: > 10 µM

Enquiry: Data request, read-out IC50, for CCNC(=O)Nc1ccc(-c2nc3c(c(N4CCOCC4)n2)CN(C(=O)OC(C)(C)C)C3)cc1
Return: 1 to 10 µM

###

# target-desc: mTOR (Homo sapiens, UniProt P42345)
# Construct: endogenous in cells; host or cells: Jurkat, clone E6-1 (ATCC TIB-152) cell lysate
# test-description: mTOR kinobeads assay (competitive binding in Jurkat cell lysate, immunodetection)
# stated-conditions: kinobeads assay, Table 6; read-out: Inhibition values (IC50) mTOR
Measured IC50 values are reported for all entries that follow.

Enquiry: Name the recorded IC50 for CCNC(=O)Nc1ccc(-c2nc3c(c(N4CCOC[C@@H]4C)n2)CN(C(=O)C(C)C)C3)cc1 [Example 21] .
Return: < 100 nM

Enquiry: Which IC50 is listed for CCNC(=O)Nc1ccc(-c2nc3c(c(N4CCOC[C@@H]4C)n2)CN(CC(C)(C)C)C3)cc1 [Example 67] ?
Return: 100 to 1000 nM

Enquiry: Request the reported IC50 associated with CCNC(=O)Nc1ccc(-c2nc3c(c(N4CCOC[C@@H]4C)n2)CN(C(=O)OCC)C3)cc1 [Example 90]
Return: < 100 nM

Enquiry: Please look up its IC50: C[C@H]1COCCN1c1nc(-c2ccc(NC(=O)NC3CC3)cc2)nc2c1CCN(CC(C)(C)C)C2 [Example 41]
Return: 100 to 1000 nM

Enquiry: Name the reported IC50 value associated with the compound CCNC(=O)Nc1ccc(-c2nc3c(c(N4CCOC[C@@H]4C)n2)CN(C(=O)OC)C3)cc1 [Example 89]
Return: < 100 nM

Enquiry: Could you tell me which IC50 is on file for C[C@H]1COCCN1c1nc(-c2ccc(NC(=O)NC3CCC3)cc2)nc2c1CN(C)C2 [Example 55] ?
Return: 100 to 1000 nM

Enquiry: Returns the measured IC50 for the input compound. Input: CCNC(=O)Nc1ccc(-c2nc3c(c(N4CCOCC4)n2)CN(C(=O)OCC)C3)cc1 [Example 70]
Return: < 100 nM

Enquiry: Please report the recorded IC50 for CCNC(=O)Nc1ccc(-c2nc3c(c(N4CCOC[C@@H]4C)n2)CCN(Cc2ccc(F)cc2)C3)cc1 [Example 31] .
Return: 1000 to 10000 nM

###

# target-desc: PI3 Kbeta (PI3 Kb) (Homo sapiens, UniProt P42338)
# Construct: endogenous in cells; host or cells: cell lysate
# Sequence (P42338 whole entry): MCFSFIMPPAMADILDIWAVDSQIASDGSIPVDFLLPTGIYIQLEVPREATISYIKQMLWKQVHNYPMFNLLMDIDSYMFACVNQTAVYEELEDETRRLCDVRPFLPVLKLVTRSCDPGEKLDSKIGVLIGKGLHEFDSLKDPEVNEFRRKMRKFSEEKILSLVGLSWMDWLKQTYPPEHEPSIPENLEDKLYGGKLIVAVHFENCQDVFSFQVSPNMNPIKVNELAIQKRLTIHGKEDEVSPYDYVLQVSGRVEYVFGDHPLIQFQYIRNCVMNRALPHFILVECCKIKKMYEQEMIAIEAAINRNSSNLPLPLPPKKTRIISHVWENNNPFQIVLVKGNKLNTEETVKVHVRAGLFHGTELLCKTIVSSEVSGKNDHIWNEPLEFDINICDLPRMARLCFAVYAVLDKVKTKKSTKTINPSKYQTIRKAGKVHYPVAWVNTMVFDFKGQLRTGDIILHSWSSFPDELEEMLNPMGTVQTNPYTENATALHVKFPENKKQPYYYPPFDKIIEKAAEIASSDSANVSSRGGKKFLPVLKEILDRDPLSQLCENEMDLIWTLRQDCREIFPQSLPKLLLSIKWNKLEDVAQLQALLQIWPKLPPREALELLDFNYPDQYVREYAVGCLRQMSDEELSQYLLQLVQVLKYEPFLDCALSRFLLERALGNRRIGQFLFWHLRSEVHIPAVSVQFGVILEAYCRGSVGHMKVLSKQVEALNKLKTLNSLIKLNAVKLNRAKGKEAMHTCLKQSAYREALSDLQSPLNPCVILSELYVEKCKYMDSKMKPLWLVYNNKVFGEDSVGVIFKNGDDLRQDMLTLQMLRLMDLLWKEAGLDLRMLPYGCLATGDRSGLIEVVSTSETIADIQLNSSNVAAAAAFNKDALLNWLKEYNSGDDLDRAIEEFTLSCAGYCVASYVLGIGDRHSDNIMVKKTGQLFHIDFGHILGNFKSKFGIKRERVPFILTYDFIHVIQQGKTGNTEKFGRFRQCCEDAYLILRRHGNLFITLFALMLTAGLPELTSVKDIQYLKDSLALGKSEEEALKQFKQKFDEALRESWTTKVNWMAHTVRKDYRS
# Sequence (P27986 whole entry partner): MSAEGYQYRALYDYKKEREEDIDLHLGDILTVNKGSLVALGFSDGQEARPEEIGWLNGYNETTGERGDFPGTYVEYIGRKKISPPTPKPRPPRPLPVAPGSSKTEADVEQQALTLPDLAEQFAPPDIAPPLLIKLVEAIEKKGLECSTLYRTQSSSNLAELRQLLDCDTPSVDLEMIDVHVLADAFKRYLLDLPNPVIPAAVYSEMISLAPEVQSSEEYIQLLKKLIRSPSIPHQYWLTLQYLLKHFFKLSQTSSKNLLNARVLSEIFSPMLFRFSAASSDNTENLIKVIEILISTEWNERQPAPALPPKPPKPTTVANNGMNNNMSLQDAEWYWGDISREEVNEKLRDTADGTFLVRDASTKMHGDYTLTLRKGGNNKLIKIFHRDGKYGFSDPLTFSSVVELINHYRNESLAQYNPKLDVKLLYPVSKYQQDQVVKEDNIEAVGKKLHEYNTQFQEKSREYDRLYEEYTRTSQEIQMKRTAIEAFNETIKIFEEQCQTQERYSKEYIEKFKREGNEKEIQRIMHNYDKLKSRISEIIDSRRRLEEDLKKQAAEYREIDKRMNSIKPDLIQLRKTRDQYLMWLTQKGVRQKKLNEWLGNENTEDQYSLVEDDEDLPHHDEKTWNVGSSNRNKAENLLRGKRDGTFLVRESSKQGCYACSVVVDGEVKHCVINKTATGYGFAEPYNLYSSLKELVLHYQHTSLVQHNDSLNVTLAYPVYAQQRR
# test-description: kinobeads assay, PI3Kbeta
# Format: binding
# stated-conditions: kinobeads assay, Table 6; read-out: Inhibition values (IC50) PI3Kb
Documented IC50 across a set of compounds

- compound: "C[C@H]1COCCN1c1nc(-c2ccc(NC(=O)NC3CC3)cc2)nc2c1CN(C(=O)C(C)(C)C)C2 [Example 45]"
  readout-kind: "IC50"
  result: "> 10 µM"
- compound: "CCNC(=O)Nc1ccc(-c2nc3c(c(N4CCOC[C@@H]4C)n2)CN(C(=O)OCC)CC3)cc1 [Example 107]"
  readout-kind: "IC50"
  result: "> 10 µM"
- compound: "CCNC(=O)Nc1ccc(-c2nc3c(c(N4CCOC[C@@H]4C)n2)CN(C(C)C)C3)cc1 [Example 74]"
  readout-kind: "IC50"
  result: "> 10 µM"
- compound: "CCNC(=O)Nc1ccc(-c2nc3c(c(N4CCOCC4)n2)CN(C(=O)OCC)C3)cc1 [Example 70]"
  readout-kind: "IC50"
  result: "> 10 µM"
- compound: "CCOC(=O)N1Cc2nc(-c3ccc(NC(=O)NCC(=O)O)cc3)nc(N3CCOC[C@@H]3C)c2C1 [Example 115]"
  readout-kind: "IC50"
  result: "> 10 µM"

Enquiry: Record request: IC50 value, item C[C@H]1COCCN1c1nc(-c2ccc(NC(=O)NC3CC3)cc2)nc2c1CN(CC1CCNCC1)C2 [Example 130]
Return: 1 to 10 µM

Enquiry: // returns reported IC50 for input C[C@H]1COCCN1c1nc(-c2ccc(NC(N)=O)cc2)nc2c1CN(C)C2 [Example 71]
Return: 1 to 10 µM

Enquiry: Return reported IC50; argument: CCNC(=O)Nc1ccc(-c2nc3c(c(N4CCOC[C@@H]4C)n2)CCN(C)C3)c(F)c1 [Example 110]
Return: > 10 µM

###

# target-desc: PI3K delta (PI3 Kd) (Homo sapiens)
# Construct: endogenous in cells; host or cells: Jurkat, clone E6-1 (ATCC TIB-152) cell lysate
# test-description: kinobeads assay, PI3K delta
# Assay type: binding
# stated-conditions: kinobeads assay, Table 6; read-out: Inhibition values (IC50) PI3Kd
Overview of recorded IC50 for various compounds

- compound: "CCNC(=O)Nc1ccc(-c2nc3c(c(N4CCOC[C@@H]4C)n2)CN(C(C)C)C3)cc1"
  readout-kind: "IC50"
  result: "> 10 µM"

Enquiry: Which value of IC50 has been reported for CCOC(=O)N1Cc2nc(-c3ccc(NC(=O)NCC(N)=O)cc3)nc(N3CCOC[C@@H]3C)c2C1 in the records?
Return: 0.1 to 1 µM

Enquiry: Which value of IC50 has been reported for CCNC(=O)Nc1ccc(-c2nc3c(c(N4CCOC[C@@H]4C)n2)CCN(C(=O)C(C)C)C3)cc1 in the records?
Return: > 10 µM

Enquiry: Name the reported IC50 value associated with the compound CCNC(=O)Nc1ccc(-c2nc3c(c(N4CCOC[C@@H]4C)n2)CCN(C(C)C)C3)cc1.O=CO [Example 75, formate]
Return: > 10 µM
